study-target: human A3AR (Homo sapiens)
Construct: expressed in transfected cells; host or cells: CHO cells, crude membrane fractions
Sequence (P0DMS8 1-318): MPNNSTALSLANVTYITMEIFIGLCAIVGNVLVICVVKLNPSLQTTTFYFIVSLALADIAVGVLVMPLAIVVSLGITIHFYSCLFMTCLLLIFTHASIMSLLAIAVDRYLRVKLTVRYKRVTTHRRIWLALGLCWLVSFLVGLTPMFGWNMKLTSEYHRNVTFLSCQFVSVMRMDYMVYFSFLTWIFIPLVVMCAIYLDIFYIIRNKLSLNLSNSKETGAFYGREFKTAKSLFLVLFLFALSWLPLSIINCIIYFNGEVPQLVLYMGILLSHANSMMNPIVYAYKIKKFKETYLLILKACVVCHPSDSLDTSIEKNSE
assay-name: Radioligand binding, displacement of [3H]NECA at human A3AR in CHO cells
condition-context: [3H]-NECA displacement, geometric mean with 95% confidence limits, read-out: Ki A3
pKi: −log10 of the molar value.
pKi listing for selected compounds.

| compound | study-target | pKi |
| --- | --- | --- |
| CCn1c(Br)nc2c(N)nc(OCCc3ccc(OC)cc3)nc21 | human A3AR (Homo sapiens) | 5.39 |
| CCn1c(-c2ccco2)nc2c(N)nc(OCCc3ccc(OC)cc3)nc21 | human A3AR (Homo sapiens) | 7.14 |
| CCOc1nc2c(N)nc(OCCc3ccccc3)nc2n1CC | human A3AR (Homo sapiens) | 6.44 |
| CCn1cnc2c(N)nc(OCCc3ccc(OC)cc3)nc21 | human A3AR (Homo sapiens) | 4.91 |
| CCn1c(C2CCCO2)nc2c(N)nc(OCCc3ccccc3)nc21 (stereo not shown) | human A3AR (Homo sapiens) | 5.84 |
| CCn1c(I)nc2c(N)nc(OCCc3ccccc3)nc21 | human A3AR (Homo sapiens) | 6.31 |
| CCn1c(-c2cccs2)nc2c(N)nc(OCCc3ccccc3)nc21 | human A3AR (Homo sapiens) | 7.57 |

* * *

study-target: human A2BAR (Homo sapiens)
Construct: expressed in transfected cells; host or cells: CHO cells, crude membrane fractions
Sequence (P29275 whole entry): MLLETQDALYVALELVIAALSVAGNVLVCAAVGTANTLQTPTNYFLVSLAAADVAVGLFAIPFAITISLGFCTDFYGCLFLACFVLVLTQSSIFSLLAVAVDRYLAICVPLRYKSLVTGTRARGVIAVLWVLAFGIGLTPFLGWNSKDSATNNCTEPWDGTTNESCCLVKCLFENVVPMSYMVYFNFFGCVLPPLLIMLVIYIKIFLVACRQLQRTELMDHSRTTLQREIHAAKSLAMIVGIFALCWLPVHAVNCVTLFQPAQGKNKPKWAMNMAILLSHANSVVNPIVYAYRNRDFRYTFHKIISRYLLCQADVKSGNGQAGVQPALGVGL
assay-name: Inhibition of NECA-stimulated adenylyl cyclase activity at human A2BAR
Type: biochemical
condition-context: inhibition of NECA-stimulated AC activity, CHO cells expressing human A2BAR; geometric mean with 95% confidence limits; read-out: IC50 A2B
Entries and their measured IC50 follow.

| compound | study-target | readout-units | IC50 |
| --- | --- | --- | --- |
| CCn1c(C2CCCO2)nc2c(N)nc(OCCc3ccccc3)nc21 (stereo not drawn) | human A2BAR (Homo sapiens) | µM | 38.9 |
| CCn1cnc2c(N)nc(OCCc3ccc(OC)cc3)nc21 | human A2BAR (Homo sapiens) | µM | 63.7 |
| CCn1c(-c2cccs2)nc2c(N)nc(OCCc3ccccc3)nc21 | human A2BAR (Homo sapiens) | µM | 4.99 |
| CCn1c(Br)nc2c(N)nc(OCCc3ccc(OC)cc3)nc21 | human A2BAR (Homo sapiens) | µM | 9.19 |
| CCn1c(I)nc2c(N)nc(OCCc3ccccc3)nc21 | human A2BAR (Homo sapiens) | µM | 0.719 |
| CCOc1nc2c(N)nc(OCCc3ccccc3)nc2n1CC | human A2BAR (Homo sapiens) | µM | 6.51 |

* * *

This listing pairs compounds with measured Selectivity A3/A2A.
study-target: human A2AAR (Homo sapiens, UniProt P29274)
Construct: expressed in transfected cells; host or cells: CHO cells, crude membrane fractions
Sequence (P29274 whole entry): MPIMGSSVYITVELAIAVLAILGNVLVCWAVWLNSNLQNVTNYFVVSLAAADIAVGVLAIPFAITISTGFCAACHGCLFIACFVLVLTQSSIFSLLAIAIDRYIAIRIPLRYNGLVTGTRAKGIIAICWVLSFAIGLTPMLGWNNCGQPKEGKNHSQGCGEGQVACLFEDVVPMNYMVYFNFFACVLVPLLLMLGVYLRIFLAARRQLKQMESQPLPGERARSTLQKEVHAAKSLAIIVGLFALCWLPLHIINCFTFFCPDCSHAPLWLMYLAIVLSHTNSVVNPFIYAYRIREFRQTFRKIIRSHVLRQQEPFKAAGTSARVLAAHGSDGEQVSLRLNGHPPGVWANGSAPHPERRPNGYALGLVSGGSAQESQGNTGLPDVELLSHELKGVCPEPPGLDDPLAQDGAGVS
assay-name: Radioligand binding, displacement of [3H]NECA at human A2AAR in CHO cells
condition-context: ratio of Ki values at human ARs
Description: The radioligand binding experiments were carried out exactly as described previously. For A1AR binding, 1 nM [^3H]CCPA was used as a radioligand, whereas 30 and 10 nM [^3H]NECA were used for A2A and A3 ARs, respectively. Nonspecific binding was determined in the presence of 1 mM theophylline (A1AR) or […] R-PIA (A2A and A3 ARs). Ki values were calculated from competition curves by nonlinear curve fitting with the program SCTFIT [31]. […]

| compound | Selectivity A3/A2A |
| --- | --- |
| CCn1c(Br)nc2c(N)nc(OCCc3ccc(OC)cc3)nc21 [Compound 10] | 146 |
| CCn1c(-c2cccs2)nc2c(N)nc(OCCc3ccccc3)nc21 [Compound 6] | 3.5 |
| CCn1c(I)nc2c(N)nc(OCCc3ccccc3)nc21 [Compound 5] | 408 |
| CCn1c(C2CCCO2)nc2c(N)nc(OCCc3ccccc3)nc21 (stereo not shown) [Compound 7] | 18 |
| CCn1cnc2c(N)nc(OCCc3ccccc3)nc21 [Compound 3, 9-ethyl-2-phenethoxyadenine] | 59 |
| CCn1c(-c2ccco2)nc2c(N)nc(OCCc3ccccc3)nc21 [Compound 2, 9-ethyl-8-furyl-2-phenetoxyadenine] | 7.3 |
| CCOc1nc2c(N)nc(OCCc3ccccc3)nc2n1CC [Compound 4, 8-ethoxy-9-ethyl-2-phenethoxyadenine] | 97 |
| CCn1cnc2c(N)nc(OCCc3ccc(OC)cc3)nc21 [Compound 9, 9-ethyl-2-(4-methoxyphenyl)ethoxyadenine] | 19 |
| CCn1c(-c2ccco2)nc2c(N)nc(OCCc3ccc(OC)cc3)nc21 [Compound 11] | 10 |
| CCn1c(Br)nc2c(N)nc(OCCc3ccccc3)nc21 [Compound 1, 8-bromo-9-ethyl-2-phenetoxyadenine] | 641 |

* * *

study-target: human A2AAR (Homo sapiens, UniProt P29274)
Construct: expressed in transfected cells; host or cells: CHO cells, crude membrane fractions
assay-name: Radioligand binding, displacement of [3H]NECA at human A2AAR in CHO cells
condition-context: ratio of Ki values at human ARs
Rule: measured Selectivity A1/A2A below 6 gets Condition met; anything equal to or greater than 6 gets Condition not met.

| compound | cat |
| --- | --- |
| CCn1cnc2c(N)nc(OCCc3ccccc3)nc21 [Compound 3, 9-ethyl-2-phenethoxyadenine] | Condition met |
| CCn1c(I)nc2c(N)nc(OCCc3ccccc3)nc21 [Compound 5] | Condition not met |
| CCn1c(-c2cccs2)nc2c(N)nc(OCCc3ccccc3)nc21 [Compound 6] | Condition met |
| CCn1cnc2c(N)nc(Oc3ccc(CCO)cc3)nc21 [Compound 13] | Condition met |
| CCn1c(Br)nc2c(N)nc(OCCc3ccccc3)nc21 [Compound 1, 8-bromo-9-ethyl-2-phenetoxyadenine] | Condition not met |
| CCn1cnc2c(N)nc(OCCc3ccc(OC)cc3)nc21 [Compound 9, 9-ethyl-2-(4-methoxyphenyl)ethoxyadenine] | Condition met |
| CCn1c(C2CCCO2)nc2c(N)nc(OCCc3ccccc3)nc21 (centres unmarked) [Compound 7] | Condition not met |
| CCn1c(-c2ccco2)nc2c(N)nc(OCCc3ccc(OC)cc3)nc21 [Compound 11] | Condition met |
| CCOc1nc2c(N)nc(OCCc3ccccc3)nc2n1CC [Compound 4, 8-ethoxy-9-ethyl-2-phenethoxyadenine] | Condition not met |
| CCn1c(Br)nc2c(N)nc(OCCc3ccc(OC)cc3)nc21 [Compound 10] | Condition not met |
| CCn1c(-c2ccco2)nc2c(N)nc(OCCc3ccccc3)nc21 [Compound 2, 9-ethyl-8-furyl-2-phenetoxyadenine] | Condition met |

* * *

study-target: human A2AAR (Homo sapiens, UniProt P29274)
Construct: expressed in transfected cells; host or cells: CHO cells, crude membrane fractions
assay-name: Radioligand binding, displacement of [3H]NECA at human A2AAR in CHO cells
condition-context: [3H]-NECA displacement, human A2AAR in CHO cells; geometric mean with 95% confidence limits; read-out: Ki A2A
pKi: −log10 of the molar value.
Use 7 as the dividing line for pKi, with the line itself on the satisfied side and lower values as not satisfied.

| smiles | cat |
| --- | --- |
| CCn1c(-c2ccco2)nc2c(N)nc(OCCc3ccc(OC)cc3)nc21 | satisfied |
| CCn1cnc2c(N)nc(Oc3ccc(CCO)cc3)nc21 | not satisfied |
| CCn1c(Br)nc2c(N)nc(OCCc3ccc(OC)cc3)nc21 | satisfied |
| CCn1cnc2c(N)nc(OCCc3ccc(OC)cc3)nc21 | not satisfied |
| CCOc1nc2c(N)nc(OCCc3ccccc3)nc2n1CC | satisfied |
| CCn1c(-c2cccs2)nc2c(N)nc(OCCc3ccccc3)nc21 | satisfied |
| CCn1c(I)nc2c(N)nc(OCCc3ccccc3)nc21 | satisfied |

* * *

study-target: human A1AR (Homo sapiens)
Construct: expressed in transfected cells; host or cells: CHO cells, crude membrane fractions
Sequence (P30542 whole entry): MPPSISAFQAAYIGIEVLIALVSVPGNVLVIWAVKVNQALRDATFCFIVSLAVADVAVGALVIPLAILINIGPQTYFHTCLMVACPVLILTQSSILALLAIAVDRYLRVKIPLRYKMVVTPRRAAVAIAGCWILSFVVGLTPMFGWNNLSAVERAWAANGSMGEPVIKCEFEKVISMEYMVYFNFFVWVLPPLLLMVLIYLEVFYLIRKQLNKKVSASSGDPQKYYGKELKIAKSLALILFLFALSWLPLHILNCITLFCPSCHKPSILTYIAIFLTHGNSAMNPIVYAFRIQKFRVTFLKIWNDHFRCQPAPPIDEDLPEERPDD
assay-name: Radioligand binding, displacement of [3H]CCPA at human A1AR in CHO cells
condition-context: [3H]-CCPA displacement, geometric mean with 95% confidence limits, read-out: Ki A1

| molecule | study-target | readout-units | Ki |
| --- | --- | --- | --- |
| CCn1c(-c2ccco2)nc2c(N)nc(OCCc3ccc(OC)cc3)nc21 | human A1AR (Homo sapiens) | nM | 39 |
| CCn1c(Br)nc2c(N)nc(OCCc3ccc(OC)cc3)nc21 | human A1AR (Homo sapiens) | nM | 197 |
| CCn1c(-c2cccs2)nc2c(N)nc(OCCc3ccccc3)nc21 | human A1AR (Homo sapiens) | nM | 21 |
| CCn1cnc2c(N)nc(Oc3ccc(CCO)cc3)nc21 | human A1AR (Homo sapiens) | nM | 22900 |
| CCn1c(I)nc2c(N)nc(OCCc3ccccc3)nc21 | human A1AR (Homo sapiens) | nM | 25 |
| CCOc1nc2c(N)nc(OCCc3ccccc3)nc2n1CC | human A1AR (Homo sapiens) | nM | 86 |
| CCn1cnc2c(N)nc(OCCc3ccc(OC)cc3)nc21 | human A1AR (Homo sapiens) | nM | 1990 |
| CCn1c(C2CCCO2)nc2c(N)nc(OCCc3ccccc3)nc21 (centres unmarked) | human A1AR (Homo sapiens) | nM | 509 |

All figures here come from paper PMC11898488.
